Overview of reported hERG current change (%, negative = inhibition) at 10uM across a group of compounds:
Biological target: human ether-à-go-go-related gene (hERG) potassium channel (human, UniProt Q12809);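 further: peak tail current of the secondary pulse compared with the same well before compound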
Sequence (Q12809 whole entry, looked up): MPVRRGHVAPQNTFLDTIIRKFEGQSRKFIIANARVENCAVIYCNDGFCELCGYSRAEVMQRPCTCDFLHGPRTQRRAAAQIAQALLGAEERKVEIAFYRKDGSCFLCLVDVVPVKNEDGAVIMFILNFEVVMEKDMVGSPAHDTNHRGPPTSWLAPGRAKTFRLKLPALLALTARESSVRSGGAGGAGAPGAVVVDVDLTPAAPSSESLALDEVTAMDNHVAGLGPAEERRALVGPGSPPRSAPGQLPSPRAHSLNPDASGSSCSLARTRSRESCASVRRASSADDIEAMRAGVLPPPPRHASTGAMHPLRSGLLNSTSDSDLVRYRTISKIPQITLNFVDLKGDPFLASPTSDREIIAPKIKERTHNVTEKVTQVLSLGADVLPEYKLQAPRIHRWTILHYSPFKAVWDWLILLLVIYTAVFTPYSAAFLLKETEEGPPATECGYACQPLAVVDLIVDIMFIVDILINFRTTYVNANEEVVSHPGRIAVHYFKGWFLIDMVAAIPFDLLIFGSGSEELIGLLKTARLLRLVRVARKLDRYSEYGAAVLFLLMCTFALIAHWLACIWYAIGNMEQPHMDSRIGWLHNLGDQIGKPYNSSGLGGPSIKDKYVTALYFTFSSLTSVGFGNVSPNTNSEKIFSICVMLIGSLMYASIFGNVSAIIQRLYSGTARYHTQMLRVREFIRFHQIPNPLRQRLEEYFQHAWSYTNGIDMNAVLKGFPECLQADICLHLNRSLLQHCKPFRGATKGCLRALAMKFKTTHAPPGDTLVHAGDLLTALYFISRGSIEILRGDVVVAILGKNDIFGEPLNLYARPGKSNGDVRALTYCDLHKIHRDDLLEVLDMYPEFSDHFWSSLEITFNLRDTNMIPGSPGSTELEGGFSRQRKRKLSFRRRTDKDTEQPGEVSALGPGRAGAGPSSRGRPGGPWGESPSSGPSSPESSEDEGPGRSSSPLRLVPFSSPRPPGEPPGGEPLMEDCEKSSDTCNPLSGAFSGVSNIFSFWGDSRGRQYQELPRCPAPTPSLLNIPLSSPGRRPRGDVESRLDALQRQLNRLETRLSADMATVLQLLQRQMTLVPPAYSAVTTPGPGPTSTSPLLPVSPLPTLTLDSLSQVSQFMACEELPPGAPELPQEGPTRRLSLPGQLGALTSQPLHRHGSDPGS
Experiment: primary screen, population patch clamp on CHO cells stably expressing hERG; higher = less effect of the substance
About 14,000 (4.5%) of roughly 310,000 compounds showed an effect of 50% or more. The effect is printed as a negative number. What follows is part of a selection rich in strong results, with near analogues and random picks from the rest.
Return type: number; implicit unit %.

Some solved entries appear below for comparison.
Cc1ccc(C(C)NC(=O)Cc2cccs2)c(C)c1 (stereo not drawn) : -9.26
COc1ccccc1C1=NCc2nnc(C)n2-c2ccc(Cl)cc21 : 3.01

For `CCS(=O)(=O)NCc1nnc2n1-c1ccc(Br)cc1C(c1ccccc1Cl)=NC2` , write its hERG current change (%, negative = inhibition) at 10uM.
-49

###

Molecular target: human ether-à-go-go-related gene (hERG) potassium channel (human, UniProt Q12809);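 further: peak tail current of the secondary pulse compared with the same well before compound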
Assay: primary screen, population patch clamp on CHO cells stably expressing hERG; higher = less effect of the substance
Hit rate of the full screen: of about 310,000 compounds, about 14,000 (4.5%) showed an effect of 50% or more. The effect is printed as a negative number. This excerpt belongs to a sample that is enriched for strong results.
experimentalEndpoint: hERG current change (%, negative = inhibition) at 10uM (%)
Return type: number; implicit unit %.

Some solved entries appear below for comparison.
O=C(/C=C/c1ccccc1)NC(=O)c1ccccc1O : 9.95
COc1ccc2c(C(=O)c3ccc(C)cc3)n(CCCC(N)=O)[n+]([O-])c2c1 : -44.2
CCc1cccc(C)c1NC(=S)NCC(c1cccnc1)N(C)C (stereo not drawn) : 5.1
CCCN(c1ccccc1C(=O)O)S(=O)(=O)c1ccc2c(c1)n(C)c(=O)n2C : 19.8
COc1ccc2c(C(=O)c3ccc(C)cc3)n(Cc3ccc(C(N)=O)cc3)[n+]([O-])c2c1 : -12.5

For `COc1ccc2c(C(=O)c3ccc(Cl)cc3)n(CCCC(N)=O)[n+]([O-])c2c1` , write its hERG current change (%, negative = inhibition) at 10uM.
-55.5

For `O=C(CCNC(=O)C1CCN(S(=O)(=O)c2ccccc2)CC1)NCc1ccc(Cl)cc1` , write its hERG current change (%, negative = inhibition) at 10uM.
8.88

For `Cc1ccc(-c2nn(CC(=O)NN3CCOCC3)c(=O)c3ccccc23)cc1` , write its hERG current change (%, negative = inhibition) at 10uM.
-1.66

###

Target: human ether-à-go-go-related gene (hERG) potassium channel (human, UniProt Q12809);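 further: peak tail current of the secondary pulse compared with the same well before compound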
Assay: primary screen, population patch clamp on CHO cells stably expressing hERG; higher = less effect of the substance
In all, about 310,000 compounds went through this assay and about 14,000 (4.5%) showed an effect of 50% or more. The effect is printed as a negative number. The full list was thinned out, with strong results kept by preference.
experimentalEndpoint: hERG current change (%, negative = inhibition) at 10uM (%)
Return type: number; implicit unit %.

Some solved entries appear below for comparison.
O=C(NC(Cc1c[nH]c2ccccc12)C(=O)O)c1cccs1 (stereo not shown) : 18.6
O=C(Nc1ccc(N2CCOCC2)c(Cl)c1)c1ccc(Br)o1 : -31.9
Cc1ccc(S(=O)(=O)N2CCCC(C(=O)NCCC3=CCCCC3)C2)cc1 (stereo not shown) : -4.03
O=C(Nc1ccc(N2CCCC2)c(Cl)c1)c1ccc(Br)o1 : -7.29
O=C(Nc1ccc(N2CCN(C(=O)c3ccccc3)CC2)c(Cl)c1)c1ncn[nH]1 : -5.79
Cl.Cn1nnnc1SCCNCc1ccccc1OCc1ccc(F)cc1 : -29.6

For `CC(=O)N1CCN(c2ccc(NC(=O)c3ccc(Br)o3)cc2Cl)CC1` , write its hERG current change (%, negative = inhibition) at 10uM.
-55.3

Source of measurements: paper PMC4336329
